Reported pIC50 values for the following compounds.
TARGET_ENTITY: protein kinases (panel of Table 4)
Construct: other: kinase PKC; ATP 100 μM
TEST_PROTOCOL: Kinase selectivity profile, kinase inhibition IC50 (Table 4), ATP 100 μM
Format: biochemical
COND: kinase PKC
Units for pIC50: none; it is -log10 of a concentration expressed in mol/L.

Take a look at these entries with their results.
{"STRUCTURE_NOTATION": "Cc1ccc(Nc2nccc(-c3sc(N)nc3C)n2)cc1S(=O)(=O)N1CCOCC1", "REPORTED": 5.60}
{"STRUCTURE_NOTATION": "CNc1nc(C)c(-c2ccnc(Nc3cccc(S(N)(=O)=O)c3)n2)s1", "REPORTED": 5.26}
{"STRUCTURE_NOTATION": "CNc1nc(C)c(-c2ccnc(Nc3ccc(C)c(S(=O)(=O)N4CCOCC4)c3)n2)s1", "REPORTED": 5.19}

Prompt: Report pIC50, nothing else, for this compound: COCCNS(=O)(=O)c1cccc(Nc2nccc(-c3sc(N)nc3C)n2)c1
Completion: 5.24
